Test system: HeLa
Test: Primary qHTS to identify gynecologic anti-cancer compounds using libraries of approved drugs and bioactive compounds (AID 1345084); further: nearly all actives have a fitted effect of over 55% in size
Conditions: Gynecologic cancer cell panel viability, ATPlite luminescence, 48 h; series mostly up to 57.5 µM
Results filed as inconclusive are left out. Activity calls are given as the source filed them. The call rests on the fitted dose curve; in most records, active means well fitted cell-killing curve with a large enough effect; inconclusive means small, poorly fitted or top-dose-only effect, or effect the other way; inactive means flat fitted curve, though single readings scatter.
# output must be one of active, inactive

For orientation, consider the following solved cases.
compound=CCOC(=O)c1cc(C#N)c(N2CCC(C(=O)NS(=O)(=O)Cc3ccccc3)CC2)nc1C assay_system=HeLa group_label=inactive
compound="C=CC1(C)CC(OC(=O)/C(C)=C\\COC(C)=O)C(C(=C)C(=O)O)C(O)C1C(=C)CO (centres undefined)" assay_system=HeLa group_label=inactive

Tell me the assay call for O=C(O)/C=C/c1cc2c(cc1O[C@@H]1O[C@H](CO)[C@@H](O)[C@H](O)[C@H]1O)OCO2 please.
inactive
